Measurement target: G-proteins coupled to opioid and ET receptors
Assay procedure: [35S]GTPγS binding assay (G-protein stimulation) in neuronal membranes of neonatal rat brain, placebo and morphine withdrawal groups
Assay type: biochemical
Condition parameters: placebo group, neonatal rat brain; read-out: EC50 for stimulated [35S]GTPγS binding
pEC50: −log10 of the molar value.
Parameter: pEC50

>>> df
                            smiles_notation  parameter  result
0  Cc1noc(NS(=O)(=O)c2cccc3c(N(C)C)cccc23)c1C      pEC50  < 6.00
